B1: IRX6 (parent)
chain: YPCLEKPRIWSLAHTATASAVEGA

Variants of: B1
Experiment notes: protein stability index of a GFP-peptide fusion (GPS, HEK-293T) (PSI 1-6); higher = more stable;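 further: lentivirally expressed fusions sorted by FACS into six bins by GFP to DsRed ratio, PSI derived from sequencing read proportions per bin multiplied by bin number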
Measurement parameters: c terminus: a fixed tail appended
Endpoint label: protein stability index

`G23E` yielded protein stability index of 2.33
